Taken from PubChem BioAssay (NCI).

Measured growth values are reported for all entries that follow.
system: NCI-H23 lung; assay: NCI-60 one-dose screen, 48 h (100 = growth as untreated, 0 = no growth, -100 = all killed); details: 10 µM unless noted
Compounds without any hit were thinned out: in the full panel of roughly 83,000, 20% have a hit.
Quick note: give the figure in %, leave out the unit.

O=c1c2ccccc2c(=O)c2c1sc1c(=O)c3ccc(O)cc3c(=O)c12    -38.8

// map N#C/C(=C\C=C\c1ccc(-c2cc(Cl)ccc2Cl)o1)c1nc2ccccc2s1 to recorded growth (system: NCI-H23 lung) 83.7

Next: COc1ccc(/C=C/C(=O)c2cc3c(N)c(C(=O)Nc4cccc(Cl)c4C)sc3nc2C)cc1 19.8

Subsequent entry: COc1ccc(-c2ccc(-c3ccc(C(=N)N)nc3)s2)cc1Cl 41.2

Same read-out for COc1ccc(C2CC(c3cc(OC)c(OC)c(OC)c3)=NO2)cc1OCCCCOc1cc2c(cc1OC)C(=O)N1CCC[C@H]1C=N2 (some centres not stated) ? -16

Please do the same for C=C(CNCCc1ccc(O)cc1)[C@@H]1CC[C@]2(CO)CC[C@]3(C)[C@H](CC[C@@H]4[C@@]5(C)CCC(=O)C(C)(C)[C@@H]5CC[C@]43C)[C@@H]12 as well. 65.7

Cool, now CCOc1cccc(/C=N/NC(=O)c2cccc(Nc3ccnc(C(F)(F)F)c3)c2)c1O 24.9

Please do the same for C=CN(C(=O)N1CCN(c2cc3c(cc2F)c(=O)c(C(=O)O)cn3C2CC2)CC1)c1nc(-c2ccc(OC)cc2)cs1 as well. 12.7

Same thing, different compound: CCOC(=O)c1ccccc1-c1c2ccc(=[N+](C)C)cc-2oc2cc(N(C)C)ccc12 93

Param item: CCN(CC)CCN1C(=O)c2cccc3c(/C=C/CN4C(=O)c5cccc6cccc(c56)C4=O)ccc(c23)C1=O 98.1

What do you have for COc1ccc(N2CCN(C(=O)c3sc4nc(C)c(Br)c(C)c4c3N)CC2)cc1 ? 99.4

Next compound: CCNC(=O)Oc1ccc(/C(=C(/CC)Cc2ccccc2)c2ccc(OCCN3CCCC3)cc2)cc1 101

Next entry: O=C1Nc2ccccc2C1(c1c[nH]c2ccccc12)c1c[nH]c2ccccc12 -13.5
